system: TK-10 renal; experiment: NCI tumour cell line growth inhibition, 48 h
TGI below 9 µM gives label 0; TGI at or above it gives label 1.

molecule	classAssignment
CCCS(=O)(=O)/C(=C(\c1ccc(Br)cc1)S(=O)(=O)CCC)c1ccc(Br)cc1	label 1
COC1(OC)CC(CO)(CNc2nc(N)nc(Cl)c2/C=N\O)C1	label 1
O=c1[nH]c(=O)n(C2OC(CO)C(O)C(O)C2O)cc1F (configuration not stated)	label 1

Decide: is the reported value of TGI for Cc1ccc(S(=O)(=O)OC(c2ccc(Cl)cc2Cl)C2OC(=O)c3ccccc32)cc1 (configuration not stated) equal to or greater than 9 µM?
label 1

Record CSc1nc2cc(S(=O)(=O)N3CCCCC3)ccc2s1 ; criterion: TGI no lower than 9 µM. Met?
label 1

Hi, just wondering whether CCn1c(SCC(=O)NNC(=S)Nc2ccc(C)cc2)nc2ccccc2c1=O shows TGI of 9 µM or higher.
label 1

Given CC1(C)N=C(N)N=C(N)N1c1ccc(OCc2ccc(S(=O)(=O)F)c(Cl)c2)c(Cl)c1 , state whether its TGI is at least 9 µM.
label 1

// inclusive: TGI at least 9 µM? input: C=C(CC[C@@H](C)[C@H]1CC[C@@]2(C)C3=C(CC[C@]12C)[C@@]1(C)CC[C@H](O)[C@@H](C)C1CC3)C(C)C (some centres not stated)
label 0

Is TGI at least 9 µM? Consider COc1ccc2nc3cc(Cl)ccc3c(NCCN)c2c1
label 0

Please tell me: is the molecule C=C[C@H]1C[C@@H]2C[C@@H]3[C@H]4C/C=C\C(=O)NCCCC5NC(=O)C(=C(O)/C=C/[C@@H]4CC(=O)[C@H]3[C@@H]2[C@H]1C)C5=O (some centres not stated) at or over 9 µM in terms of TGI?
label 0
